Test system: vancomycin resistant Enterococci (VRE)
Assay: Assay for in vitro antibacterial activity, agar dilution (VRE)
Settings: Enterococcus, read-out: Minimum Inhibitory Concentration (MIC50) VRE
Recorded MIC50 by entry

- compound: "Cn1nnc(-c2ccc(-c3ccc(N4C[C@H](COP(=O)([O][Na+])[O][Na+])OC4=O)cc3F)cn2)n1 [Compound 59]"
  MIC50 [µg/mL]: 0.25
- compound: "Cn1nnc(-c2ccc(-c3c(F)cc(N4C[C@H](CO)OC4=O)cc3F)cn2)n1 [Compound 38]"
  MIC50 [µg/mL]: 1
- compound: "NCC(=O)OC[C@H]1CN(c2ccc(-c3ccc(-n4nccn4)nc3)c(F)c2)C(=O)O1 [Compound 35, trifluoroacetic acid]"
  MIC50 [µg/mL]: 1
- compound: "O=C1O[C@@H](CO)CN1c1ccc(-c2ccc(-n3ccnn3)nc2)c(F)c1 [Compound 24]"
  MIC50 [µg/mL]: 0.5
